# Measured Target: CDK7/CycH/MNAT1 (Homo sapiens (Human), UniProt P50613)
# Sequence (P50613 whole entry): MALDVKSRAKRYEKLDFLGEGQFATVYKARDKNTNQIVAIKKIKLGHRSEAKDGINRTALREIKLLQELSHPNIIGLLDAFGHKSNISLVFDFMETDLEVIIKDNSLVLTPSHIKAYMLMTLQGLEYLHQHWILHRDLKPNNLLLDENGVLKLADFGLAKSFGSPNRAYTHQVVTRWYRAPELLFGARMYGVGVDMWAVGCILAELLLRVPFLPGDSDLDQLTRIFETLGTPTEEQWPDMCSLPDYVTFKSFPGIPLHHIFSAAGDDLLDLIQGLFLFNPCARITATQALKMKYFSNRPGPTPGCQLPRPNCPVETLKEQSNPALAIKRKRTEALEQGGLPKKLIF
# Sequence (P51946 whole entry partner): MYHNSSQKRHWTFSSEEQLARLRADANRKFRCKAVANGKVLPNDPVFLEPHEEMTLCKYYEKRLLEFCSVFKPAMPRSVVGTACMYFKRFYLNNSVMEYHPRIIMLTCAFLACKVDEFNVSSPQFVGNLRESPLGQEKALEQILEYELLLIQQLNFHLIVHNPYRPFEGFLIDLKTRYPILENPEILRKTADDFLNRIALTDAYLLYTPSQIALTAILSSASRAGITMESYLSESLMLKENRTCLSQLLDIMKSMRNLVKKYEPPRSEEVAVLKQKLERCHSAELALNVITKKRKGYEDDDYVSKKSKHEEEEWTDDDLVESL
# Sequence (P51948 whole entry partner): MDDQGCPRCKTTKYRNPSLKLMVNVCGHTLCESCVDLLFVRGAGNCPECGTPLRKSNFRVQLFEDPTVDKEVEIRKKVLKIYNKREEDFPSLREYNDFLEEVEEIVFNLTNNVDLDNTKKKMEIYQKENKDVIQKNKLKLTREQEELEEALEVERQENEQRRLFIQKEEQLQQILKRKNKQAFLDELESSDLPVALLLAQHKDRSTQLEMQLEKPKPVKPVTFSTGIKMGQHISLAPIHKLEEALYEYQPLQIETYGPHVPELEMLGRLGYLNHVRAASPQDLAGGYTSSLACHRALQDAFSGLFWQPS
# Protocol: Biochemical assay for CDK7 (TR-FRET kinase assay)
# Measurement Conditions: 10 μM compound; 60 min pre-incubation; 1 mM ATP; read-out: % inhibition @ 10 μM
Experimental Endpoint: inhibition at 10 µM (%)

(a) C=CC(=O)N1CCC(C(=O)Nc2cccc(CNc3nc(N[C@@H]4CCNC[C@H]4F)nc4c(C(C)C)cnn34)c2)C1 (some centres unmarked) [Compound 14]
(b) CC(C)c1cnn2c(NCC3CCN(C(=O)/C=C/CN4CCCC4)CC3)nc(NC3CCOCC3)nc12 [Compound 138]
Ask | Just tell me: smaller inhibition at 10 µM value, a or b ? Your choice should be expressed through its label.
Reply | b
(b: 64%, a: 97%)

====

# Measured Target: CDK7/CycH/MNAT1 (Homo sapiens (Human), UniProt P50613)
# Protocol: Biochemical assay for CDK7 (TR-FRET kinase assay)
# Measurement Conditions: 60 min pre-incubation; 1 mM ATP; read-out: IC50
# Experimental: The ability of compounds to inhibit CDK7 kinase activity was tested in a TR-FRET assay using 5 nM of CDK7/CycH/MNAT1 obtained from Invitrogen, USA. Test compounds were pre-incubated with the kinase at room temperature for 60 min. […] 1 nM Eu-labelled antiphospho-MBP antibody [Perkin Elmer, USA] was added, mixed well and the fluorescence emission at 615 nm and 665 nm [excitation at 340 nm] was measured. […] All the fluorescence measurements were made in a Victor 3 Multilabel Counter [Perkin Elmer, USA]. […]
pIC50: −log10 of the molar value.
Experimental Endpoint: pIC50

// solved cases for pIC50 follow
C=CC(=O)N1CCC(C(=O)Nc2cccc(CNc3nc(OC4CCOCC4)nc4c(C(C)C)cnn34)c2)C1 (centres unmarked); > 6.52
C=CC(=O)N1CCCCC1C(=O)Nc1cc(CNc2nc(NC3CCOCC3)nc3c(C(C)C)cnn23)ccc1F (centres unmarked); > 6.52
C=CC(=O)N1CCC(C(=O)Nc2cc(CNc3nc(NC4CCOCC4)nc4c(C(C)C)cnn34)ccc2F)C1 (centres unmarked); 6.00 to 6.52
C=CC(=O)Nc1ccc(C)c(C(=O)Nc2cccc(CNc3nc(NC4CCOCC4)nc4c(C(C)C)cnn34)c2)c1 [Compound 40B]; > 6.52
CC(C)c1cnn2c(NCc3ccc(NC(=O)/C=C/CN4CCCC4)cc3)nc(NC3CCOCC3)nc12; 6.00 to 6.52
C=C(C)C(=O)N1CCC1C(=O)Nc1cccc(CNc2nc(NC3CCOCC3)nc3c(C(C)C)cnn23)c1 (centres unmarked); 6.00 to 6.52
C=CC(=O)N1CCCC1C(=O)Nc1cccc(CNc2nc(NC3CCOCC3)nc3c(C(C)C)cnn23)c1 (centres unmarked); > 6.52
CC(C)c1cnn2c(NCc3cccc(NC(=O)/C=C/CN4CCCCC4)c3)nc(NC3CCOCC3)nc12; > 6.52
C=CC(=O)N1CCCC(C(=O)Nc2cc(CNc3nc(OC4CCN(C)CC4)nc4c(C(C)C)cnn34)ccc2F)C1 (centres unmarked); > 6.52
CC(C)c1cnn2c(Nc3cccc(C(=O)NC4CCCN(C(=O)/C=C/CN(C)C)C4)c3)nc(OC3CCN(C)CC3)nc12 (centres unmarked); > 6.52

pIC50 recorded for this compound, `C=CC(=O)N[C@H]1CC[C@H](C(=O)Nc2cccc(CNc3nc(OC4CCN(C)CC4)nc4c(C(C)C)cnn34)c2)CC1` , is > 6.52

pIC50 recorded for this compound, CC(C)c1cnn2c(NCc3cc(F)cc(NC(=O)C4CCN(C(=O)/C=C/CN(C)C)C4)c3)nc(NC3CCOCC3)nc12 (centres unmarked) , is 6.00 to 6.52

pIC50 recorded for this compound, C=CC(=O)N1CCOC(C(=O)Nc2cccc(CNc3nc(NC4CCOCC4)nc4c(C(C)C)cnn34)c2)C1 (centres unmarked) , is > 6.52

pIC50 recorded for this compound, `C=CC(=O)N1CCC(C(=O)Nc2cccc(CNc3nc(OC)nc4c(C(C)C)cnn34)c2)CC1` , is < 6.00
